Overview of recorded pKd for various binders
# Assay target: T1, recombinant MST1R-Fc fusion protein (containing 25-571 amino acid sequence of human MST1R, R&D) (human, UniProt Q04912 25-571)
# T1 construct: Bought from R&D systems; also called immobilized recombinant human MST1R; not shown: Fc part of the bought fusion protein (R&D systems)
# T1 chain: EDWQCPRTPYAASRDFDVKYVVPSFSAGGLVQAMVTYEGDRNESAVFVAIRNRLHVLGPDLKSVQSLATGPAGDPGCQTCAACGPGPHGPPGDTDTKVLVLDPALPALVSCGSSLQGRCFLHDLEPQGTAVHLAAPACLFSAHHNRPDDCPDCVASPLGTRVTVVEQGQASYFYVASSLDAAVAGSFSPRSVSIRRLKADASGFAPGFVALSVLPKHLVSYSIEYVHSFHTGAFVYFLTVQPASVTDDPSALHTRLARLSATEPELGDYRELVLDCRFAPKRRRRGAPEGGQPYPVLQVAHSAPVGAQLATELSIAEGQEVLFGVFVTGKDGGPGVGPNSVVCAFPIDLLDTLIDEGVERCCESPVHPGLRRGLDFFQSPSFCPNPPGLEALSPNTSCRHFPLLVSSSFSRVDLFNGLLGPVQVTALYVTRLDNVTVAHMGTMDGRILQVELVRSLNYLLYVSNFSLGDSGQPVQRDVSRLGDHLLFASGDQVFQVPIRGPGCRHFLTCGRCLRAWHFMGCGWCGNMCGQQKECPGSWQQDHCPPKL
# Measurement protocol: SPR (Biacore 3000), Fab over directly immobilized MST1R-Fc
Reminder that pKd means the negative base-10 logarithm of the concentration expressed in mol/L.

MOR07926 Fab (Fab, V domains shown, carries two C-terminal tags (FLAG and Strep-tag II); also called Fab MOR07926) VH: QVQLVESGGGLVQPGGSLRLSCAASGFTFNSYSMSWVRQAPGKGLEWVSYISSRSSTTYYADSVKGRFTISRDNSKNTLYLQMNSLRAEDTAVYYCARGYFHGMDYWGQGTLVTVSS VL: DIVLTQSPATLSLSPGERATLSCRASQSVSFDYLGWYQQKPGQAPRLLIYGASNRATGVPARFSGSGSGTDFTLTISSLEPEDFATYYCFQALIMPFTFGQGTKVEIKR :: 9.89
MOR07919 Fab (Fab, V domains shown, carries two C-terminal tags (FLAG and Strep-tag II); also called Fab MOR07919) VH: QVQLVQSGAEVKKPGESLKISCKGSGYSFTNYWISWVRQMPGKGLEWMGFIYPDDSYTRYSPSFQGQVTISADKSISTAYLQWSSLKASDTAMYYCARFSYRHYLDMDDHWGQGTLVTVSS VL: DIELTQPPSVSVAPGQTARISCSGDSLGSKYVHWYQQKPGQAPVLVIYRDNKRPSGIPERFSGSNSGNTATLTISGTQAEDEADYYCQSYDATEFTYVFGGGTKLTVLG :: 9.01

Could you now consider this next binder?
Look up pKd: MOR07924 Fab (Fab, V domains shown, carries two C-terminal tags (FLAG and Strep-tag II); also called Fab MOR07924) VH: QVQLVESGGGLVQPGGSLRLSCAASGFTFNSYSMSWVRQAPGKGLEWVSYISSRSSTTYYADSVKGRFTISRDNSKNTLYLQMNSLRAEDTAVYYCARGYFHGMDYWGQGTLVTVSS VL: DIVLTQSPATLSLSPGERATLSCRASQSVSFDYLGWYQQKPGQAPRLLIYGASNRATGVPARFSGSGSGTDFTLTISSLEPEDFATYYCQQYNINPFTFGQGTKVEIKR
9.70
